- Test system: T1, recombinant human HER2 extracellular domain protein (human, UniProt P04626 23-652)
- T1 construct: range 23-652; Range is printed for the immunogen/panning protein; also called ErbB2; recombinant HER2 protein
- Assay name: BLI, Protein A capture
Readout name: kon (M⁻¹ s⁻¹)
Numeric only. Scale: M⁻¹ s⁻¹

Field: example entries. Status: answers known.
Binder	Readout value
2126-Hu-H43 (antibody, IgG1, V domains shown, IgG1/Cκ) VH: QVQLVQSGSELKKPGASVKVSCKASGYTFTDYSMHWVRQAPGQGLEWMGWINTETGEPTYADDFKGRFVFSLDTSTSTAYLQISSLKAEDTAVYFCVRVGRYDYAMDYWGQGTTVTVSS VL: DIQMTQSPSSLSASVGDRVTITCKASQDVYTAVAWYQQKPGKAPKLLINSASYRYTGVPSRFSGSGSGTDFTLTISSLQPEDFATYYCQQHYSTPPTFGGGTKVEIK	107000
2126-Hu-H36 (antibody, IgG1, V domains shown, IgG1/Cκ) VH: QVQLVQSGSELKKPGASVKVSCKASGYTFTDYSMHWVRQAPGQGLEWMGWINTETGEPTYADDFKGRFTFSLDTSVSTAYLQISSLKAEDTAVYFCVRVGRYDYAMDYWGQGTTVTVSS VL: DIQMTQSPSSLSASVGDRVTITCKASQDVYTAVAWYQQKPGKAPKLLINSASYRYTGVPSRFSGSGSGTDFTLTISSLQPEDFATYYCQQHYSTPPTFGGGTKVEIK	105000

Record request: kon value, item 2126-Hu-L11 (antibody, IgG1, V domains shown, IgG1/Cκ) VH: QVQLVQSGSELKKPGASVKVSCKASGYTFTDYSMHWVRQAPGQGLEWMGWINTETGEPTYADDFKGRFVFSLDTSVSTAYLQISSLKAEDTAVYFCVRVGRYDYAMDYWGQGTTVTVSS VL: DIQMTQSPSSLSASVGDRVTITCKASQDVYTAVAWYQQKPGKAPKLLINSASQRYTGVPSRFSGSGSGTDFTLTISSLQPEDFATYYCQQHYSTPPTFGGGTKVEIK
104000

Record request: kon value, item 2126-Hu-H33 (antibody, IgG1, V domains shown, IgG1/Cκ) VH: QVQLVQSGSELKKPGASVKVSCKASGYTFTDYSMHWVRQAPGQGLEWMGWINTETGEPTYADKFKGRFVFSLDTSVSTAYLQISSLKAEDTAVYFCVRVGRYDYAMDYWGQGTTVTVSS VL: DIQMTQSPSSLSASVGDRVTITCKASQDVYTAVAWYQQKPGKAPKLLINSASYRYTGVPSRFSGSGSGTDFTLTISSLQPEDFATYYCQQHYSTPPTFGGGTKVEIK
109000

Record request: kon value, item 2126-Hu-H35 (antibody, IgG1, V domains shown, IgG1/Cκ) VH: QVQLVQSGSELKKPGASVKVSCKASGYTFTDYSMHWVRQAPGQGLEWMGWINTETGEPTYADDVKGRFVFSLDTSVSTAYLQISSLKAEDTAVYFCVRVGRYDYAMDYWGQGTTVTVSS VL: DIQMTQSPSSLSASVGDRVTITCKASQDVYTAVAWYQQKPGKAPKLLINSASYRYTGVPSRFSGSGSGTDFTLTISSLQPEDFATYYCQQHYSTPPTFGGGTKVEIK
103000

The measured values listed here are drawn from patent EP4725969A1.
